Recorded values, source PubChem BioAssay AID1845204.

# System: HSSY-II tumor spheroid viability
# method summary: Anticancer human tumor HSSY-II cell line growth inhibition;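 note: spheroids exposed to compounds for seven days before reading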;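 for viability, T/C: percent of DMSO vehicle control viability so 100% = untreated level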
# settings: second compound 10 µM; first compound 0.949 µM; stronger effect = lower value; spheroids with HUVEC and MSC
reported metric: viability, T/C (%)
Express your answer in %, writing the number without its unit.

# example entries with known answers
compound	reported metric	recorded measurement
Cn1ncnc1[C@H]1c2n[nH]c(=O)c3cc(F)cc(c23)N[C@@H]1c1ccc(F)cc1 + Cn1nnc2c(C(N)=O)ncn2c1=O	viability, T/C	8.29
O=C(c1cc(Cc2n[nH]c(=O)c3ccccc23)ccc1F)N1CCN(C(=O)C2CC2)CC1 + Cn1nnc2c(C(N)=O)ncn2c1=O	viability, T/C	81.3

Exam item: Recorded viability, T/C for CNCc1ccc(-c2cc(-c3nc(-c4ccc(S(=O)(=O)C(C)C)cc4)cnc3N)on2)cc1 + Cn1nnc2c(C(N)=O)ncn2c1=O , please?
Marked response: 1.58

Exam item: Here is the next compound: Cc1sc2c(c1C)C(c1ccc(Cl)cc1)=NC(CC(=O)Nc1ccc(O)cc1)c1nnc(C)n1-2 (centres undefined) + Cn1nnc2c(C(N)=O)ncn2c1=O
Marked response: 20.1

---

pIC50 listing for selected compounds.
# Tested on: HSSY-II tumor spheroid viability
# method summary: Anticancer human tumor HSSY-II cell line growth inhibition;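 note: spheroids exposed to compounds for seven days before reading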
# settings: curve of first compound; second compound 0.0003 µM; spheroids with HUVEC and MSC
pIC50: −log10 of the molar value.

Consider the following illustrative entries.
compound	pIC50
[2H]c1nc(C)nc([2H])c1-c1cc(NC[C@@H](C)c2cccc3c(C(=O)NC)ccnc23)ncn1 + COc1cc2c(cc1O)CCNC21CSC2c3c(OC(C)=O)c(C)c4c(c3C(COC1=O)N1C(O)C3Cc5cc(C)c(OC)c(O)c5C(C21)N3C)OCO4	> 7.50
Cc1cc(C)c(CNC(=O)c2cc(-c3ccc(CN4CCOCC4)cc3)cc3c2cnn3C2CCCC2)c(=O)[nH]1 + COc1cc2c(cc1O)CCNC21CSC2c3c(OC(C)=O)c(C)c4c(c3C(COC1=O)N1C(O)C3Cc5cc(C)c(OC)c(O)c5C(C21)N3C)OCO4	> 7.50
Cc1sc2c(c1C)C(c1ccc(Cl)cc1)=NC(CC(=O)Nc1ccc(O)cc1)c1nnc(C)n1-2 (stereo not drawn) + COc1cc2c(cc1O)CCNC21CSC2c3c(OC(C)=O)c(C)c4c(c3C(COC1=O)N1C(O)C3Cc5cc(C)c(OC)c(O)c5C(C21)N3C)OCO4	> 8.02
CNCc1ccc(-c2cc(-c3nc(-c4ccc(S(=O)(=O)C(C)C)cc4)cnc3N)on2)cc1 + COc1cc2c(cc1O)CCNC21CSC2c3c(OC(C)=O)c(C)c4c(c3C(COC1=O)N1C(O)C3Cc5cc(C)c(OC)c(O)c5C(C21)N3C)OCO4	> 8.02
COc1ccc([C@@H](O)c2cc(-c3ncnc4cc(N5CCOCC5)ccc34)c(F)cc2Cl)nn1 + COc1cc2c(cc1O)CCNC21CSC2c3c(OC(C)=O)c(C)c4c(c3C(COC1=O)N1C(O)C3Cc5cc(C)c(OC)c(O)c5C(C21)N3C)OCO4	> 7.50
CC(C)n1c(=O)n(C)c2cnc3cc(F)c(-c4ccc(OCCCN5CCCCC5)nc4)cc3c21 + COc1cc2c(cc1O)CCNC21CSC2c3c(OC(C)=O)c(C)c4c(c3C(COC1=O)N1C(O)C3Cc5cc(C)c(OC)c(O)c5C(C21)N3C)OCO4	> 7.50
COc1cc(C)[nH]c(=O)c1CN1CCc2c(Cl)cc(C(OC)C3COC3)c(Cl)c2C1=O (stereo not drawn) + COc1cc2c(cc1O)CCNC21CSC2c3c(OC(C)=O)c(C)c4c(c3C(COC1=O)N1C(O)C3Cc5cc(C)c(OC)c(O)c5C(C21)N3C)OCO4	> 7.50

Turning now to a further record.
Exam item: Reported pIC50, compound CC1COCCN1c1cc(-c2ccnn2C)c2ccnc(-c3ccn[nH]3)c2n1 (stereo not drawn) + COc1cc2c(cc1O)CCNC21CSC2c3c(OC(C)=O)c(C)c4c(c3C(COC1=O)N1C(O)C3Cc5cc(C)c(OC)c(O)c5C(C21)N3C)OCO4 : ____
Marked response: > 7.50

---

# System: HSSY-II tumor spheroid viability
# method summary: Anticancer human tumor HSSY-II cell line growth inhibition;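 note: spheroids exposed to compounds for seven days before reading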;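 for viability, T/C: percent of DMSO vehicle control viability so 100% = untreated level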
# settings: second compound 1 µM; first compound 0.1 µM; stronger effect = lower value; spheroids with HUVEC and MSC
Recorded viability, T/C, one value per entry.
API: value field is a number in %; no unit string.

Here are 5 compounds together with their reported answers.
compound	result units	viability, T/C
CC1COCCN1c1cc(-c2ccnn2C)c2ccnc(-c3ccn[nH]3)c2n1 (stereo unspecified) + Cn1nnc2c(C(N)=O)ncn2c1=O	%	6.4
[2H]c1nc(C)nc([2H])c1-c1cc(NC[C@@H](C)c2cccc3c(C(=O)NC)ccnc23)ncn1 + Cn1nnc2c(C(N)=O)ncn2c1=O	%	101
CC(C)n1c(=O)n(C)c2cnc3cc(F)c(-c4ccc(OCCCN5CCCCC5)nc4)cc3c21 + Cn1nnc2c(C(N)=O)ncn2c1=O	%	97.4
COc1cc(C)[nH]c(=O)c1CN1CCc2c(Cl)cc(C(OC)C3COC3)c(Cl)c2C1=O (stereo unspecified) + Cn1nnc2c(C(N)=O)ncn2c1=O	%	93.1
COc1ccc([C@@H](O)c2cc(-c3ncnc4cc(N5CCOCC5)ccc34)c(F)cc2Cl)nn1 + Cn1nnc2c(C(N)=O)ncn2c1=O	%	95.8

We now examine a further compound.
Exam item: Could you tell me which viability, T/C is on file for Cc1cc(C)c(CNC(=O)c2cc(-c3ccc(CN4CCOCC4)cc3)cc3c2cnn3C2CCCC2)c(=O)[nH]1 + Cn1nnc2c(C(N)=O)ncn2c1=O ?
Marked response: 105

---

# Tested on: HSSY-II tumor spheroid viability
# method summary: Anticancer human tumor HSSY-II cell line growth inhibition;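 note: spheroids exposed to compounds for seven days before reading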;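 for viability, T/C: percent of DMSO vehicle control viability so 100% = untreated level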
# settings: second compound 30 pM; first compound 10 µM; stronger effect = lower value; spheroids with HUVEC and MSC
reported metric: viability, T/C (%)
Report only the number, with the unit % understood.

compound	recorded measurement
COc1cc(C)[nH]c(=O)c1CN1CCc2c(Cl)cc(C(OC)C3COC3)c(Cl)c2C1=O (configuration not stated) + COc1cc2c(cc1O)CCNC21CSC2c3c(OC(C)=O)c(C)c4c(c3C(COC1=O)N1C(O)C3Cc5cc(C)c(OC)c(O)c5C(C21)N3C)OCO4	90.1

Exam item: Which viability, T/C reading was recorded for the compound [2H]c1nc(C)nc([2H])c1-c1cc(NC[C@@H](C)c2cccc3c(C(=O)NC)ccnc23)ncn1 + COc1cc2c(cc1O)CCNC21CSC2c3c(OC(C)=O)c(C)c4c(c3C(COC1=O)N1C(O)C3Cc5cc(C)c(OC)c(O)c5C(C21)N3C)OCO4 ?
Marked response: 86.2

---

# System: HSSY-II tumor spheroid viability
# method summary: Anticancer human tumor HSSY-II cell line growth inhibition;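 note: spheroids exposed to compounds for seven days before reading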;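 for viability, T/C: percent of DMSO vehicle control viability so 100% = untreated level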
# settings: second compound 10 µM; first compound 0.316 µM; stronger effect = lower value; spheroids with HUVEC and MSC
reported metric: viability, T/C (%)
Give your result in % as a bare value.

molecule	recorded measurement
Cc1cc(C)c(CNC(=O)c2cc(-c3ccc(CN4CCOCC4)cc3)cc3c2cnn3C2CCCC2)c(=O)[nH]1 + Cn1nnc2c(C(N)=O)ncn2c1=O	100
[2H]c1nc(C)nc([2H])c1-c1cc(NC[C@@H](C)c2cccc3c(C(=O)NC)ccnc23)ncn1 + Cn1nnc2c(C(N)=O)ncn2c1=O	101
COc1cc(C)[nH]c(=O)c1CN1CCc2c(Cl)cc(C(OC)C3COC3)c(Cl)c2C1=O (stereo unspecified) + Cn1nnc2c(C(N)=O)ncn2c1=O	75.6

Exam item: API: value(readout= viability, T/C, system= HSSY-II tumor spheroid viability, query= CC1COCCN1c1cc(-c2ccnn2C)c2ccnc(-c3ccn[nH]3)c2n1 (stereo unspecified) + Cn1nnc2c(C(N)=O)ncn2c1=O )
Marked response: 2.63

Exam item: Please answer likewise for CC(C)n1c(=O)n(C)c2cnc3cc(F)c(-c4ccc(OCCCN5CCCCC5)nc4)cc3c21 + Cn1nnc2c(C(N)=O)ncn2c1=O
Marked response: 97.4

Exam item: Same thing, different molecule: COc1ccc([C@@H](O)c2cc(-c3ncnc4cc(N5CCOCC5)ccc34)c(F)cc2Cl)nn1 + Cn1nnc2c(C(N)=O)ncn2c1=O
Marked response: 89.6

---

# System: HSSY-II tumor spheroid viability
# method summary: Anticancer human tumor HSSY-II cell line growth inhibition;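 note: spheroids exposed to compounds for seven days before reading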;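 for viability, T/C: percent of DMSO vehicle control viability so 100% = untreated level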
# settings: second compound 0.03 µM; first compound 0.3 µM; stronger effect = lower value; spheroids with HUVEC and MSC
# viability, T/C per entry
Supply the numeric figure in %, leaving out any unit text.

compound	viability, T/C (%)
Cn1ncnc1[C@H]1c2n[nH]c(=O)c3cc(F)cc(c23)N[C@@H]1c1ccc(F)cc1 + CC[C@@]1(O)C(=O)OCc2c1cc1n(c2=O)Cc2cc3c(CN(C)C)c(O)ccc3nc2-1	5.52

Exam item: I'm curious: which viability, T/C was measured for CNCc1ccc(-c2cc(-c3nc(-c4ccc(S(=O)(=O)C(C)C)cc4)cnc3N)on2)cc1 + CC[C@@]1(O)C(=O)OCc2c1cc1n(c2=O)Cc2cc3c(CN(C)C)c(O)ccc3nc2-1 tested on HSSY-II tumor spheroid viability?
Marked response: 3.14

Exam item: Further, for Cc1sc2c(c1C)C(c1ccc(Cl)cc1)=NC(CC(=O)Nc1ccc(O)cc1)c1nnc(C)n1-2 (centres undefined) + CC[C@@]1(O)C(=O)OCc2c1cc1n(c2=O)Cc2cc3c(CN(C)C)c(O)ccc3nc2-1 ?
Marked response: 5.13

Exam item: And O=C(c1cc(Cc2n[nH]c(=O)c3ccccc23)ccc1F)N1CCN(C(=O)C2CC2)CC1 + CC[C@@]1(O)C(=O)OCc2c1cc1n(c2=O)Cc2cc3c(CN(C)C)c(O)ccc3nc2-1 ?
Marked response: 5.95
